Data provenance is ChEMBL document CHEMBL1201862.

I'd be grateful if you could share measured GI50 for these entries.
System: SF-295
Assay procedure: NCI tumour cell line growth inhibition, 48 h
Active and inactive are the calls of the source. Rule as the data show it: active = GI50 up to about 1.1 µM and inactive = higher.

Please tell me: GI50 of Oc1ccc(Cc2nccc3cc(O)c(O)cc23)cc1O , system SF-295? 37.2 µM (inactive)

Requested read-out GI50, target or system SF-295, entry CC(/C=C/C=C\C=C\C=C(/C)C(=O)NC(C)CO)=C\C(C)C(O)/C(C)=C/C(C)CCc1ccccc1 (centres undefined) 0.0236 µM (active)

Request - read-out GI50 | tested on SF-295 | molecule Nc1ccc2nc3n(c2c1)C(=O)c1ccccc1-3 > 100 µM (inactive)

Request: GI50, test system SF-295, entry Cc1ccc(-n2nc(C(OC3OC(CO)C(O)C(O)C3O)C(O)CO)c3nc4cc(C)c(C)cc4nc32)cc1 (centres undefined) > 100 µM (inactive)
